All figures here come from PubChem BioAssay (NCI).

# Tested on: SF-539 CNS
# test protocol: NCI tumour cell line growth inhibition, 48 h
For each of the compounds below, state its TGI.

Ask: Under SF-539 CNS, report TGI for CCOc1cccc2cccnc12
Result: > 100 µM

Ask: Fill: TGI (SF-539 CNS) for this compound COc1ccc2c(c1)Cc1cc(N=[N+]([O-])c3ccc4c(c3)Cc3cc(OC)ccc3-4)ccc1-2
Result: 28.5 µM

Ask: Enter TGI (test system SF-539 CNS) for COc1ccc(/C=N\N2C(=O)Cc3ccccc32)cc1
Result: > 100 µM

Ask: Name the value of TGI reported for O=C(Nc1ccc(Cl)cc1Cl)c1c/c(=N\O)c2ccc(O)cc2o1 when tested on SF-539 CNS.
Result: > 100 µM

Ask: Write TGI of C=C1c2c(C)nn(-c3ccccc3)c2N(C)C23C[C@@H]1C1(C)c4c(C)nn(-c5ccccc5)c4N(C)C(C)(C[C@H]12)C3 (some centres not stated) ; system used: SF-539 CNS
Result: > 100 µM

Ask: Identify measured TGI obtained with SF-539 CNS for C=C1CN(C(=O)c2cc3cc(OC)c(OC)c(OC)c3[nH]2)c2cc([N+](=O)[O-])ccc21 .
Result: > 100 µM

Ask: Give TGI only, for Oc1ccc(Br)cc1CN1CCN(Cc2ccc(Cl)cc2)CC1 , using SF-539 CNS data.
Result: > 100 µM

Ask: Write down the reported TGI (system: SF-539 CNS) of COc1cc2c3c(c1OC)C1(C=CC(=O)C=C1)CC3N(C(=O)OC(C)(C)C(Cl)(Cl)Cl)CC2 (configuration not stated)
Result: 30.4 µM

Ask: Consider the compound N#CC1=C(N)NC(=S)NC1c1ccc(-c2ccc(-c3nc4ccccc4s3)cc2)o1 (configuration not stated) tested on SF-539 CNS; state its TGI.
Result: 31.7 µM

Ask: Given CCOC(=O)Cn1c(=O)c2cc(C)cc3c(Cl)nc4c(OC)c(OC)cc1c4c32 , report its TGI on SF-539 CNS.
Result: > 100 µM

Ask: # lookup: SF-539 CNS TGI, key = Cc1cc([C@H](C#N)c2nc3ccccc3s2)nc(Cl)n1
Result: 64 µM

Ask: Look up SF-539 CNS data: TGI of Cc1cc(C)c(-c2noc(-c3ccc(Cl)cc3)c2C2=NCCN2)c(C)c1 , then report it.
Result: 32 µM

Ask: Output reported TGI of the compound O=C(O)/C=C/C(=O)Nc1cccc2c1-c1ccccc1C2=O on SF-539 CNS.
Result: 19.2 µM

Ask: Report TGI from SF-539 CNS testing of CC(=O)OC1CC[C@@]2(C)C(CC(OC3OC(CO)C(O)C(O)C3O)[C@]3(C)C2CCC24CC23CC[C@H]4C(C)CC(O)[C@@H](O)C(C)(C)O)C1(C)C (some centres not stated)
Result: 19.1 µM

Ask: Lab note: record TGI of COc1c2c(cc3oc(=O)ccc13)OC(C)(C)C=C2 tested on SF-539 CNS.
Result: > 125 µM

Ask: Look up and report TGI, with SF-539 CNS as system, for COc1cc(C=C2C(=O)OC(C)(C)OC2=O)cc(OC)c1OC
Result: > 100 µM

Ask: Please tell me the measured TGI for CCC(C)CNC1=C(NC(C)=O)C(=O)c2ccccc2C1=O (configuration not stated) ; system: SF-539 CNS.
Result: > 100 µM

Ask: // fetch TGI; item: COc1ccc(C2CC(c3cccc(Nc4ccnc5cc(Cl)ccc45)c3)=NN2c2ccccc2)cc1 (configuration not stated) ; system: SF-539 CNS
Result: 3.25 µM

Ask: Please look at COC(=O)c1nc(N)[nH]c(=O)c1-c1ccc(Cl)cc1 and tell me its recorded TGI on SF-539 CNS.
Result: > 100 µM

Ask: System SF-539 CNS. Read-out TGI. Item COC(=O)C1=C(SC)SC2(C(=O)OC)C3C=C(C)C4C(N13)C42C(=O)OC (configuration not stated) . Report value.
Result: > 100 µM

Ask: Enter recorded TGI with SF-539 CNS for O=C(O)CC(Cc1ccccc1)C(=O)O (configuration not stated) here.
Result: > 100 µM

Ask: Please tell me the measured TGI for CC(C)(C)NC(=O)C12C3C4C1C1C2C3C41I (configuration not stated) ; system: SF-539 CNS.
Result: > 100 µM

###

# Tested on: ACHN renal
# test protocol: NCI tumour cell line growth inhibition, 48 h
Where a SMILES comes first, the peptide text is derived from it. The star is where a group is joined. Boc = CC(C)(C)OC(=O)*; OBn = c1ccc(CO*)cc1; Bn = c1ccc(C*)cc1
observable: TGI

Ask: For the compound COc1c(Cl)ccc(Cl)c1-c1nnc(-c2c(Cl)c(Cl)c(Cl)c(Cl)c2-c2nc3ccc(C(=O)c4ccccc4)cc3[nH]2)o1 , give its reported TGI.
Result: > 100 µM

Ask: Fill in TGI for record Cc1cc(C)cc(NC(=O)CCC(=O)C2CCC/C2=N\NC(=O)C(=O)NN)c1 (stereo not drawn)
Result: > 100 µM

Ask: Dear colleague, please send me the reported TGI for N#CC1(Cc2ccccc2Cl)c2ccccc2C=CN1C(=O)c1ccccc1 (stereo not drawn) when you can.
Result: > 100 µM

Ask: For CCOc1cccc2cccnc12 , write its TGI.
Result: > 100 µM

Ask: Identify the reported TGI for the following entry. CC(=O)Nc1ccc(S(=O)(=O)/N=c2/sc(S(N)(=O)=O)nn2C)cc1
Result: > 100 µM

Ask: Consider the compound NC(=O)c1ncn(C2CCC(CP(=O)(O)O)C2)c1N (stereo not drawn) and give its recorded TGI.
Result: > 100 µM

Ask: Tell us which TGI value is on record for O=C(O)C(C1NCCS1)N1Cc2ccccc2C1 (stereo not drawn)
Result: > 100 µM

Ask: State its TGI: O=C(OCc1ccccc1[N+](=O)[O-])N1c2ccccc2[C@@]23O[C@]24CCC[C@H]3C#C/C=C\C#C[C@H]14
Result: > 100 µM

Ask: Identify measured TGI corresponding to O=c1cc(N2CCOCC2)oc2c(-c3ccccc3)cccc12
Result: > 100 µM

Ask: Fill in reported TGI for this entry: C/C(=N\NC(=S)N/N=C(\C)c1ccccn1)c1ccccn1
Result: 5.7 µM

Ask: Identify the reported TGI for the following entry. CC(C)CCC[C@@H](C)C1CCC2[C@@H]3CC=C4C[C@@H](OC(=O)CCC(=O)NCC[N+](C)(C)CCCS(=O)(=O)[O-])CC[C@]4(C)C3CC[C@@]21C (stereo partly drawn)
Result: 53.9 µM

Ask: In one line, give reported TGI of the entry COc1cccc(-n2cnc3c(N/N=C/c4ccncc4)ncnc32)c1 .
Result: > 25 µM

Ask: Specify reported TGI for the compound shown: O=C1/C(=C/c2ccc(F)cc2)CN(Cc2cn(CCNc3ccnc4cc(Cl)ccc34)nn2)C/C1=C\c1ccc(F)cc1
Result: 3.04 µM

Ask: Provide measured TGI value, entry: CC(C)CC(NC(=O)C(CCC(=O)OCc1ccccc1)NC(=O)OC(C)(C)C)C(=O)NC(COCc1ccccc1)C(=O)NC(Cc1ccccc1)C(=O)O (stereo not drawn) (Boc-E(OBn)LS(Bn)F-OH; configuration not given here)
Result: > 100 µM

Ask: Please give measured TGI of the following entry: CC1=NN(C(=O)CC(=O)Nc2ccccc2)C(=O)C1N=Nc1ccc(S(N)(=O)=O)cc1 (stereo not drawn)
Result: > 100 µM

Ask: Fill in reported TGI for this entry: CC(C)=CCNc1ncnc2c1ncn2C1OC(COP(=O)(O)O)C(O)C1O (stereo not drawn)
Result: > 100 µM

Ask: Entry COC(=O)CC[C@@H](NC(=O)C(C)NC(=O)COC1C(O)C(COC(=O)CCCCCCCCCCNC(=O)c2ccc([N+](=O)[O-])c3[nH]c4cc(Br)ccc4c(=O)c23)OC(OCc2ccccc2)C1NC(C)=O)C(N)=O (stereo partly drawn) needs its TGI filled in; supply it.
Result: > 100 µM

Ask: Provide TGI value for the following compound: CN(CCN(C)Cc1ccc(Cl)c(Cl)c1)CCN1CCCC1
Result: > 100 µM

###

Would you kindly list TGI for each of these compounds?
# Test system: SK-MEL-2 melanoma
# test protocol: NCI tumour cell line growth inhibition, 48 h
Report the figure in µM without appending any unit label.

Ask: For the compound O=C(CCCCCn1c2ccccc2c2c3c(c4c5ccccc5[nH]c4c21)C(=O)N(O)C3=O)N1CCOCC1 , give its reported TGI.
Result: 5.47

Ask: Recall and state the measured TGI for CC(C)=CCNc1ncnc2c1ncn2C1OC(COP(=O)(O)O)C(O)C1O (stereo not given) .
Result: 99.8

Ask: Tell us which TGI value is on record for COc1cc2c3c(c1OC)C1(C=CC(=O)C=C1)CC3N(C(=O)OC(C)(C)C(Cl)(Cl)Cl)CC2 (stereo not given)
Result: 25.2

Ask: Give the measured TGI for N#CC1=C(N)Oc2c(sc3c(F)cccc23)C1c1ccc(Cl)cc1 (stereo not given)
Result: 15.5

Ask: Output TGI of Cc1cc(C)c2c(=O)n(CC(O)CN3CCN(c4ncccn4)CC3)sc2n1 (stereo not given)
Result: 32.7

Ask: Look up and state reported TGI for CC(=N\O)/C(C)=N/O.CC(=N\O)/C(C)=N/O.[Pd]
Result: 8.67

Ask: Supply measured TGI of CC(C)=CCC[C@@H](C)c1c(O)c(O)c(C)c2nc3ccccc3nc12 in your reply.
Result: 9.26

Ask: Note TGI for the compound shown: CC([C@H]1CCC2C3CCC4C(=O)C(NC=O)=CC[C@]4(C)C3CC[C@@]21C)N(C)C (stereo not given in full)
Result: 25.2

Ask: Return reported TGI. Input compound: COC(=O)C1=C(O)C(C(=O)OC)[C@@]2(O)[C@@H](C(=O)OC)C(c3ccccc3C(F)(F)F)C[C@@H]1[C@@H]2C(=O)OC (stereo not given in full)
Result: 36.4
